# Assay name: NCI Yeast Anticancer Drug Screen. Data for the cln2 rad14 strain (AID 165)
# Measurement conditions: S. cerevisiae cln2 rad14 strain; at 50.0 µM unless noted
About 79,000 compounds went through this panel and 15% of them were active in at least one assay; those are over-represented in the sample as a whole. Activity calls are given as the source filed them. Rule as the data show it: active = growth inhibition above about 70%; inactive = the rest.
Respond only with the outcome that fits, drawn from active, inactive

Compound	Group label
O=C1/C(=C\c2ccccc2)Sc2cc[nH]c21	inactive
CC(=O)Nc1ccc(CCCc2ccc([N+](=O)[O-])cc2)cc1	inactive
COCS(=O)(=O)c1ccccc1	inactive
O=C(c1ccc(Cl)cc1)N1CCC(CCCc2ccccc2)CC1	inactive
CCCCCCCCCCCC(=O)NC(=S)Nc1cccc(O)c1	active
NNC(=O)CCn1[nH]c(=O)c(Cl)c(Cl)c1=O	inactive

In: Which outcome was assigned to Cc1ccc2ccccc2c1CN(C)C in this test?
Out: inactive

In: What call does the record list for CC/C(=N/NC(N)=O)c1ccc(C)cc1 ?
Out: inactive
